Each entry below carries its recorded IC50.
- Test system: fetal bovine heart-derived endothelial cells (FBHE cells)
- METHOD DESCRIPTION: Angiogenesis inhibiting activity test: inhibition of proliferation of cultured FBHE cells (neutral red uptake, 3 days)
- Format: cell-based
- RUN CONDITIONS: Bos taurus, Endothelial cell, 72 h; FBHE cells, with addition of FGF (5 ng/ml at maximum), 3 days incubation, 10% FBS-added DME, 0.05% DMSO

>  <CHEMICAL SMILES>
CC(C)(C)c1cc(Nc2nccs2)cc(C(C)(C)C)c1O

>  <UNITS>
µg/mL

>  <IC50>
0.89

$$$$
>  <CHEMICAL SMILES>
CCSc1sc(Nc2cc(C(C)(C)C)c(O)c(C(C)(C)C)c2)nc1C

>  <UNITS>
µg/mL

>  <IC50>
1.55

$$$$
>  <CHEMICAL SMILES>
CCOC(=O)c1sc(Nc2cc(C(C)(C)C)c(O)c(C(C)(C)C)c2)nc1C

>  <UNITS>
µg/mL

>  <IC50>
1.92

$$$$
>  <CHEMICAL SMILES>
CC(C)(C)c1cc(Nc2nc(CO)cs2)cc(C(C)(C)C)c1O.Cl.Cl

>  <UNITS>
µg/mL

>  <IC50>
0.92

$$$$
>  <CHEMICAL SMILES>
Cc1nc(Nc2cc(C(C)(C)C)c(O)c(C(C)(C)C)c2)sc1C

>  <UNITS>
µg/mL

>  <IC50>
6.14

$$$$
>  <CHEMICAL SMILES>
CC(C)(C)c1cc(Nc2nc(C(=O)NN)cs2)cc(C(C)(C)C)c1O

>  <UNITS>
µg/mL

>  <IC50>
0.61

$$$$
>  <CHEMICAL SMILES>
CC(C)(C)c1cc(Sc2nccs2)cc(C(C)(C)C)c1O

>  <UNITS>
µg/mL

>  <IC50>
1.85

$$$$
>  <CHEMICAL SMILES>
CCOC(=O)c1csc(Oc2cc(C(C)(C)C)c(O)c(C(C)(C)C)c2)n1

>  <UNITS>
µg/mL

>  <IC50>
0.74

$$$$
>  <CHEMICAL SMILES>
CCCCCc1sc(Nc2cc(C(C)(C)C)c(O)c(C(C)(C)C)c2)nc1C

>  <UNITS>
µg/mL

>  <IC50>
2.18

$$$$
